Source listed as PubChem BioAssay (Tox21).

target: Retinoic acid receptor RXR-alpha (Homo sapiens) (UniProt P19793); assay: qHTS assay to identify small molecule agonists of the RXR signaling pathway (AID 1159527); details: HEK293T RXRa-UAS-bla, beta-lactamase ratio, 16 h; series mostly up to 76.8 µM; also: nearly all actives have a fitted effect of over 35% in size
Sequence (P19793 whole entry, looked up): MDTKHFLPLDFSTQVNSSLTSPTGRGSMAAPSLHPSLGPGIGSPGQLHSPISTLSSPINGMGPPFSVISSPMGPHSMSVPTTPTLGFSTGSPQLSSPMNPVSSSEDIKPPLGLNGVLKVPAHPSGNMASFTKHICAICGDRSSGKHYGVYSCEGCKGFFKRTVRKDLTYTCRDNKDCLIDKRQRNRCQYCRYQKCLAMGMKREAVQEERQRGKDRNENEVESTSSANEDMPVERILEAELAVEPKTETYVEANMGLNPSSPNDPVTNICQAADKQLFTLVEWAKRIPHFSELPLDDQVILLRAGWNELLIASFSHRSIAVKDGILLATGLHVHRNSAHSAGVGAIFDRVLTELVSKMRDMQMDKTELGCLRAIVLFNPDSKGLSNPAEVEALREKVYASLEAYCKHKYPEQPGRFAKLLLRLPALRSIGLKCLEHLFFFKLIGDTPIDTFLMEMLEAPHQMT
Results filed as inconclusive are left out. The source made the active and inactive calls. Calls follow the shape of the full dose curve.
property: outcome

O=[N+]([O-])/N=C1\NCCN1Cc1ccc(Cl)nc1
inactive
CC(O)CN(CC(C)O)CC(C)O (stereo not drawn)
inactive
c1ccc2c(c1)Nc1ccccc1S2
inactive
CCC/C=N/O
inactive
Clc1ccccc1-c1nnc(-c2ccccc2Cl)nn1
inactive
COP(=S)(OC)Oc1ccc(Sc2ccc(OP(=S)(OC)OC)cc2)cc1
inactive
[Cl-].[Cl-].[Cl-].[Fe+3]
inactive
CCOP(=S)(OCC)SCSC(C)(C)C
inactive
Clc1ccc(C(Cl)(Cl)Cl)cc1
inactive
Cc1cc(Cl)ccc1N=CN(C)C
inactive
Cc1cccc(N=Nc2ccc(N(C)C)cc2)c1
inactive
CN(C)P(=O)(N(C)C)N(C)C
inactive
CC(C)CON=O
inactive
COc1ccc(C=O)cc1OC
inactive
ClCC(Cl)CCl
inactive
O=NN1CCOCC1
inactive
CC1CC(=O)O1 (stereo not drawn)
inactive
[CH3][Sn]([Cl])([Cl])[Cl]
inactive
CN(C)c1nc(=O)n(C2CCCCC2)c(=O)n1C
inactive
C=CC(Cl)CCl (stereo not drawn)
inactive
Nc1ncn[nH]1
inactive
Nc1ccc([N+](=O)[O-])cc1N
inactive
O=C1Nc2ccc(Cl)cc2C(c2ccccc2)=NC1O (stereo not drawn)
inactive
NN=C(N)N
inactive
CCOP(=O)(O)OCC (tested in a mixture with another compound)
inactive
ClC(Cl)(Cl)c1ccccc1
inactive
Cc1ccc([N+](=O)[O-])cc1
inactive
CNC(=O)Oc1cccc2c1OC(C)(C)C2
inactive
Nc1ccc2ccccc2c1
inactive
CCOS(=O)(=O)OCC
inactive
CS(=O)(=O)NC(=O)c1cc(Oc2ccc(C(F)(F)F)cc2Cl)ccc1[N+](=O)[O-]
inactive
CN(C)c1ccccc1
inactive
ClC(Cl)(Cl)Br
inactive
